- ASSAY_SYSTEM: human serotonin reuptake transporter (Homo sapiens, UniProt P31645)
- Sequence (P31645 whole entry): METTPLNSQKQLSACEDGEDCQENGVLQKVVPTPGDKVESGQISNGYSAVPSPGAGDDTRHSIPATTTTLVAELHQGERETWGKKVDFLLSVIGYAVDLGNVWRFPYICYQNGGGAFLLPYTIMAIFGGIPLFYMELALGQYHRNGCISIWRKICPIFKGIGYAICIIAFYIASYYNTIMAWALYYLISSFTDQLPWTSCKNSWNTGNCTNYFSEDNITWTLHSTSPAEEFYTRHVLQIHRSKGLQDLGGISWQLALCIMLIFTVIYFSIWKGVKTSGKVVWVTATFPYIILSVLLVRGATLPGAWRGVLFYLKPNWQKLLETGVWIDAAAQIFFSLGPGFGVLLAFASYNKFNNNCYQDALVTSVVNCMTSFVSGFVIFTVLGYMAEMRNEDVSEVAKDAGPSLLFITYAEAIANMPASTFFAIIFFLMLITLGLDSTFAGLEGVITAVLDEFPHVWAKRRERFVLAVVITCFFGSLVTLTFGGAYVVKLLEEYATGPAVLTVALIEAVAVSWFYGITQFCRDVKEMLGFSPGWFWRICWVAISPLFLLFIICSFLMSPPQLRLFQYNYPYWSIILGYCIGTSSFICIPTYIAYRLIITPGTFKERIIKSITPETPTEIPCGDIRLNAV
- RUN_DESCRIPTION: cell-based
- CONDITIONS_USED: Human IC50 (nM) hSERT, recombinant human serotonin transporter (SERT)
Measured IC50, listed per entry.
Reply numerically in nM, unit not repeated.

Below are worked cases with known answers.
CCC(N(C)C)C1(c2ccc(Cl)c(Cl)c2)CCCCC1 (single isomer, unassigned) [61 E1] : 5950
CN(C)CC1(c2ccc3c(c2)OCO3)CCCCC1 : 195
NCC1(c2ccc(OC(F)(F)F)cc2)CCCCC1 : 1400
NCC1(c2cccc(C(F)(F)F)c2)CCCCC1 : 6550

Prompt: Can you look up the measured IC50 of NCC1(c2ccc(Cl)c(Cl)c2)CCC(O)C1 (stereo not drawn) [trans 167] for me?
Completion: 4910

Prompt: Any idea what IC50 was measured for `CNCC1(c2ccc3cc(F)ccc3c2)CCCCC1` ?
Completion: 230

====

- ASSAY_SYSTEM: human serotonin reuptake transporter (Homo sapiens, UniProt P31645)
- RUN_DESCRIPTION: cell-based
- CONDITIONS_USED: recombinant human serotonin transporter (SERT); read-out: Human IC50 (nM) hSERT
OUTCOME_MEASURE: IC50 (nM)
Quick reminder: number only, in nM, skip the unit.

CN(C)CC1(c2ccc(OC(F)(F)F)cc2)CCC(C)(O)CC1 (stereo not drawn) [Compound 248] : 159
CC1(O)CCC(CN)(c2ccc3c(c2)OCO3)CC1 (stereo not drawn) [Compound 215] : 4190
CCC1(O)CCC(CN(C)C)(c2ccc(Cl)c(Cl)c2)CC1 (stereo not drawn) [Compound 280] : 7
CNCC1(c2ccc(Cl)c(Cl)c2)CCC(C)(O)CC1 (stereo not drawn) [Compound 273] : 830
NCC1(c2ccc3ccccc3c2)CCC(Cl)CC1 (stereo not drawn) [Compound 211] : 55

Prompt: Endpoint output: IC50 of CNC(C)C1(c2ccc3ccccc3c2)CCC(C)(O)CC1 (single isomer, unassigned) [231 E1] . Value?
Completion: 1280

====

- ASSAY_SYSTEM: human serotonin reuptake transporter (Homo sapiens)
- RUN_DESCRIPTION: cell-based
- CONDITIONS_USED: Human IC50 (nM) hSERT, recombinant human serotonin transporter (SERT)
The following compounds are listed with their measured IC50 values.

NCC1(c2ccc(F)cc2)CCCCC1 : > 10000 nM
CNCC1(c2ccc(F)cc2)CCCCC1 : 839 nM
CNCC1(c2cccc(C(F)(F)F)c2)CCCCC1 : 9490 nM
NCC1(c2ccc(Cl)c(Cl)c2)CCCC(F)(F)C1 (stereo not drawn) : 2250 nM
NCC1(c2cccc(F)c2)CCCCC1 : > 10000 nM

// next item, IC50 requested
Prompt: Which IC50 is listed for `NCC1(c2ccc(Cl)cc2Cl)CCCCC1` ?
Completion: 472 nM

====

Consider the following compounds and their measured IC50 readings.
- ASSAY_SYSTEM: human serotonin reuptake transporter (Homo sapiens, UniProt P31645)
- RUN_DESCRIPTION: cell-based
- CONDITIONS_USED: recombinant human serotonin transporter (SERT); read-out: Human IC50 (nM) hSERT

// known answers, use as guide
NCC1(c2ccc3c(c2)OCO3)CCC(O)CC1 (stereo not drawn) : > 10000 nM
CNCC1(c2ccc3c(c2)OCO3)CCC(C)(O)CC1 (stereo not drawn) [Compound 241] : > 10000 nM

Please find the next compound below.
Prompt: Give IC50 (human serotonin reuptake transporter (Homo sapiens, UniProt P31645)) of the following compound: NCC1(c2ccc(Cl)c(Cl)c2)CCCC(O)C1 (single isomer, unassigned) [184 E2]
Completion: > 10000 nM
